Just for reference, patent US10405547B2 is where these values come from.

system: ragweed (common ragweed, Ambrosia elatior); test: Test A preemergence, ragweed; type: in vivo; conditions: 500 g ai/ha, 0 to 100 scale (0 no effect, 100 complete control)
QUANTITY MEASURED: Plant response rating, Ragweed
Keep it simple and answer with nothing but the number.

Please review the following examples before continuing.
{"COMPOUND": "O=C1NCC(c2cccc(Oc3ccc(C(F)(F)F)cn3)c2)C1C(=O)Nc1cccc(F)c1F (single isomer, unassigned)", "MEASURED TARGET": "ragweed (common ragweed, Ambrosia elatior)", "Plant response rating, Ragweed": 60}
{"COMPOUND": "CN1CC(c2cccc(Oc3ccc(C(F)(F)F)cn3)c2)C(C(=O)Nc2ccccc2F)C1=O (single isomer, unassigned)", "MEASURED TARGET": "ragweed (common ragweed, Ambrosia elatior)", "Plant response rating, Ragweed": 80}

Now look at this entry.
Given CN1CC(c2cccc(Sc3ccccc3)c2)C(C(=O)Nc2ccccc2F)C1=O (single isomer, unassigned) , respond with its Plant response rating, Ragweed.
30

###

tested on: pigweed (Amaranthus retroflexus); assay: Test A preemergence, pigweed; type: in vivo; conditions: 125 g ai/ha, 0 to 100 scale (0 no effect, 100 complete control)
Values of Plant response rating, Pigweed strictly less than 20 map to label 1, and values of at least 20 map to label 0.

{"COMPOUND": "CN1CC(c2cccc(OC(F)(F)C(F)OC(F)(F)F)c2)C(C(=O)Nc2cccc(F)c2F)C1=O (stereo not drawn)", "LABEL CLASS": "label 0"}

For this compound, is Plant response rating, Pigweed lower than 20? CN1CC(c2cccc(Oc3ccc(F)cc3)c2)C(C(=O)Nc2ccccc2F)C1=O (single isomer, unassigned)
label 0

For this compound, is Plant response rating, Pigweed lower than 20? O=C1NCC(c2cccc(Oc3ncc(F)cc3F)c2)C1C(=O)Nc1cccc(F)c1F (single isomer, unassigned)
label 0

For this compound, is Plant response rating, Pigweed lower than 20? O=C1NCC(c2ccccc2Cn2ccc(C(F)(F)F)n2)C1C(=O)Nc1cccc(F)c1F (stereo not drawn)
label 1

For this compound, is Plant response rating, Pigweed lower than 20? O=C1NCC(c2cccc(COc3ccccc3)c2)C1C(=O)Nc1ccccc1F (stereo not drawn)
label 1

For this compound, is Plant response rating, Pigweed lower than 20? O=C1NCC(c2cccc(Oc3ncc(Cl)cn3)c2)C1C(=O)Nc1cccc(F)c1F (stereo not drawn)
label 1

For this compound, is Plant response rating, Pigweed lower than 20? O=C1NCC(c2cccc(CN3CCOCC3)c2)C1C(=O)Nc1cccc(F)c1F (single isomer, unassigned)
label 1

For this compound, is Plant response rating, Pigweed lower than 20? O=C1NCC(c2cccc(OCC3OCCO3)c2)C1C(=O)Nc1ccccc1C(F)(F)F (stereo not drawn)
label 1

###

test system: ragweed (common ragweed, Ambrosia elatior); test: Test A preemergence, ragweed; type: in vivo; settings: 500 g ai/ha, 0 to 100 scale (0 no effect, 100 complete control)
QUANTITY MEASURED: Plant response rating, Ragweed
Keep it simple and answer with nothing but the number.

{"COMPOUND": "O=C1NCC(c2cccc(Cn3cccn3)c2)C1C(=O)Nc1cccc(F)c1F (centres unmarked)", "MEASURED TARGET": "ragweed (common ragweed, Ambrosia elatior)", "VALUE OBSERVED": 0}
{"COMPOUND": "O=C1NCC(c2cccc(Cn3ccc(C(F)(F)F)n3)c2)C1C(=O)Nc1ccc(F)c(F)c1F (centres unmarked)", "MEASURED TARGET": "ragweed (common ragweed, Ambrosia elatior)", "VALUE OBSERVED": 0}
{"COMPOUND": "O=C1NCC(c2cccc(OCc3ccccc3)c2)C1C(=O)Nc1ccccc1F (centres unmarked)", "MEASURED TARGET": "ragweed (common ragweed, Ambrosia elatior)", "VALUE OBSERVED": 0}
{"COMPOUND": "CN1CC(c2cccc(OC(F)(F)C(F)OC(F)(F)F)c2)C(C(=O)Nc2cccc(F)c2F)C1=O (centres unmarked)", "MEASURED TARGET": "ragweed (common ragweed, Ambrosia elatior)", "VALUE OBSERVED": 0}
{"COMPOUND": "CN1CC(c2cccc(Oc3ccc(F)cn3)c2)C(C(=O)Nc2cccc(F)c2F)C1=O (single isomer, unassigned)", "MEASURED TARGET": "ragweed (common ragweed, Ambrosia elatior)", "VALUE OBSERVED": 60}
{"COMPOUND": "O=C1NCC(c2ccccc2Cn2ccc(C(F)(F)F)n2)C1C(=O)Nc1ccccc1F (centres unmarked)", "MEASURED TARGET": "ragweed (common ragweed, Ambrosia elatior)", "VALUE OBSERVED": 0}
{"COMPOUND": "CC1(COc2cccc(C3CNC(=O)C3C(=O)Nc3ccccc3F)c2)COC1 (centres unmarked)", "MEASURED TARGET": "ragweed (common ragweed, Ambrosia elatior)", "VALUE OBSERVED": 0}

Now look at this entry.
Given CN1CC(c2cccc(Oc3ccc(F)cc3)c2)C(C(=O)Nc2cccc(F)c2F)C1=O (single isomer, unassigned) , respond with its Plant response rating, Ragweed.
30

###

tested on: galium (catchweed bedstraw, Galium aparine); test: Test A postemergence, galium; assay type: in vivo; conditions: 500 g ai/ha, visual injury, 0 to 100 scale (0 no effect, 100 complete control), approximately 10 days
Measured Plant response rating, Galium, listed per entry.
Keep it simple and answer with nothing but the number.

{"MOLECULE": "CN1CC(c2cccc(Oc3ccc(F)cn3)c2)C(C(=O)Nc2ccccc2F)C1=O (single isomer, unassigned)", "Plant response rating, Galium": 60}
{"MOLECULE": "O=C1NCC(c2cccc(Cn3cccn3)c2)C1C(=O)Nc1ccc(F)cc1F (centres unmarked)", "Plant response rating, Galium": 0}
{"MOLECULE": "O=C1NCC(c2cccc(OCc3ccco3)c2)C1C(=O)Nc1ccccc1Cl (centres unmarked)", "Plant response rating, Galium": 0}
{"MOLECULE": "O=C1NCC(c2cccc(Oc3ncc(Cl)cn3)c2)C1C(=O)Nc1cccc(F)c1F (centres unmarked)", "Plant response rating, Galium": 20}
{"MOLECULE": "C[Si](C)(C)C#Cc1cccc(C2CNC(=O)C2C(=O)Nc2cccc(F)c2F)c1 (centres unmarked)", "Plant response rating, Galium": 20}
{"MOLECULE": "O=C1NCC(c2cccc(Cn3cccn3)c2)C1C(=O)Nc1ccc(F)c(F)c1F (centres unmarked)", "Plant response rating, Galium": 0}

Given O=C1NCC(c2cccc(OCC3CC3)c2)C1C(=O)Nc1cccc(F)c1F (centres unmarked) , respond with its Plant response rating, Galium.
50

Given O=C1NCC(c2cccc(Oc3ccc(F)cn3)c2)C1C(=O)Nc1ccccc1F (single isomer, unassigned) , respond with its Plant response rating, Galium.
70

Given O=C1NCC(c2cccc(Cn3ccc(C(F)(F)F)n3)c2)C1C(=O)Nc1ccccc1F (centres unmarked) , respond with its Plant response rating, Galium.
0

Given CN1CC(c2cccc(OC(F)(F)C(F)OC(F)(F)F)c2)C(C(=O)Nc2cccc(F)c2F)C1=O (centres unmarked) , respond with its Plant response rating, Galium.
60

###

tested on: wheat (Triticum aestivum); experiment: Test A postemergence, wheat; type: in vivo; conditions: 125 g ai/ha, visual injury, 0 to 100 scale (0 no effect, 100 complete control), approximately 10 days
QUANTITY MEASURED: Plant response rating, Wheat
Keep it simple and answer with nothing but the number.

Please review the following examples before continuing.
{"MOLECULE": "CC1(COc2cccc(C3CNC(=O)C3C(=O)Nc3ccccc3C(F)(F)F)c2)COC1 (stereo not shown)", "MEASURED TARGET": "wheat (Triticum aestivum)", "Plant response rating, Wheat": 0}
{"MOLECULE": "O=C1NCC(c2cccc(OCC3CC3)c2)C1C(=O)Nc1cccc(F)c1F (stereo not shown)", "MEASURED TARGET": "wheat (Triticum aestivum)", "Plant response rating, Wheat": 0}
{"MOLECULE": "O=C1NCC(c2cccc(COc3ccccc3)c2)C1C(=O)Nc1ccc(F)c(F)c1F (stereo not shown)", "MEASURED TARGET": "wheat (Triticum aestivum)", "Plant response rating, Wheat": 0}

Now look at this entry.
Given O=C1NCC(c2cccc(Oc3ccccn3)c2)C1C(=O)Nc1ccc(F)c(F)c1F (stereo not shown) , respond with its Plant response rating, Wheat.
0

###

tested on: barnyardgrass (Echinochloa crus-galli); assay: Test A postemergence, barnyardgrass; type: in vivo; conditions: 500 g ai/ha, visual injury, 0 to 100 scale (0 no effect, 100 complete control), approximately 10 days
Measured Plant response rating, Barnyardgrass, listed per entry.
Keep it simple and answer with nothing but the number.

Please review the following examples before continuing.
{"MOLECULE": "CN1CC(c2cccc(OC(F)(F)C(F)OC(F)(F)F)c2)C(C(=O)Nc2cccc(F)c2F)C1=O (stereo not shown) [Compound 48]", "MEASURED TARGET": "barnyardgrass (Echinochloa crus-galli)", "Plant response rating, Barnyardgrass": 50}
{"MOLECULE": "CC1(COc2cccc(C3CNC(=O)C3C(=O)Nc3ccccc3Cl)c2)COC1 (stereo not shown) [Compound 16]", "MEASURED TARGET": "barnyardgrass (Echinochloa crus-galli)", "Plant response rating, Barnyardgrass": 50}
{"MOLECULE": "CN1CC(c2cccc(OC(F)(F)C(F)OC(F)(F)F)c2)C(C(=O)Nc2ccccc2F)C1=O (stereo not shown) [Compound 41]", "MEASURED TARGET": "barnyardgrass (Echinochloa crus-galli)", "Plant response rating, Barnyardgrass": 50}

Given O=C1NCC(c2cccc(OCC3CC3)c2)C1C(=O)Nc1ccc(F)cc1F (stereo not shown) [Compound 3] , respond with its Plant response rating, Barnyardgrass.
60

Given O=C1NCC(c2cccc(OCc3ccco3)c2)C1C(=O)Nc1ccccc1Cl (stereo not shown) [Compound 1] , respond with its Plant response rating, Barnyardgrass.
0

Given O=C1NCC(c2cccc(Cn3cncn3)c2)C1C(=O)Nc1ccccc1F (stereo not shown) [Compound 31] , respond with its Plant response rating, Barnyardgrass.
0

Given O=C1NCC(c2cccc(OCC3OCCO3)c2)C1C(=O)Nc1ccccc1C(F)(F)F (stereo not shown) [Compound 5] , respond with its Plant response rating, Barnyardgrass.
20

Given O=C1NCC(c2cccc(Cn3ccc(C(F)(F)F)n3)c2)C1C(=O)Nc1ccc(F)cc1F (stereo not shown) [Compound 24] , respond with its Plant response rating, Barnyardgrass.
0

Given O=C1NCC(c2cccc(OCC3OCCO3)c2)C1C(=O)Nc1ccccc1F (stereo not shown) [Compound 8] , respond with its Plant response rating, Barnyardgrass.
70
